- tested_target: Gonadotropin-releasing hormone receptor (Homo sapiens)
- method_summary: Inhibition of [125I]buserelin binding to human pituitary gonadotropin-releasing hormone receptor
pIC50: −log10 of the molar value.

compound: Cc1cc(C)cc(-c2[nH]c3ccc(C(C)(C)C(=O)N4C5CCC4CC5)cc3c2[C@H](C)CNCCc2cccc3cnccc23)c1
tested_target: Gonadotropin-releasing hormone receptor (Homo sapiens)
pIC50: 9.22
--
compound: Cc1cc(C)cc(-c2[nH]c3ccc(C(C)(C)C(=O)N4C5CCC4CC5)cc3c2[C@H](C)CNCCc2c[nH]c3ncnc-3c2)c1
tested_target: Gonadotropin-releasing hormone receptor (Homo sapiens)
pIC50: 9.40
--
compound: Cc1cc(C)cc(-c2[nH]c3ccc(C(C)(C)C(=O)N4C5CCC4CC5)cc3c2[C@H](C)CNCc2cccc3ncccc23)c1 (stereo in doubt; 27b)
tested_target: Gonadotropin-releasing hormone receptor (Homo sapiens)
pIC50: 7.82
--
compound: Cc1cc(C)cc(-c2[nH]c3ccc(C(C)(C)C(=O)N4C5CCC4CC5)cc3c2[C@H](C)CNCCCc2ccc3ncccc3c2)c1
tested_target: Gonadotropin-releasing hormone receptor (Homo sapiens)
pIC50: 8.52

---

- tested_target: Gonadotropin-releasing hormone receptor (Homo sapiens, UniProt P30968)
- Sequence (P30968 whole entry): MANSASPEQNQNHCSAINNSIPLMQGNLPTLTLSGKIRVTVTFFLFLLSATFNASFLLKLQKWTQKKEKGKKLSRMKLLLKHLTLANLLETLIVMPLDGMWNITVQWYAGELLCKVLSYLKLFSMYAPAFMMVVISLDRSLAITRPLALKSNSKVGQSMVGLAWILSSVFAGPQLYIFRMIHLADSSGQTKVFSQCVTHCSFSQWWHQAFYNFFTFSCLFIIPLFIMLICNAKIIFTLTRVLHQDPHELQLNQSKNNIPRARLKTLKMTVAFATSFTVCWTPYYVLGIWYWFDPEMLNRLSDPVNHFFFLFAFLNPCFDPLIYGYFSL
- method_summary: Inhibition of [125I]buserelin binding to human pituitary gonadotropin-releasing hormone receptor
readout_label: IC50 (pM)

compound: Cc1cc(C)cc(-c2[nH]c3ccc(C(C)(C)C(=O)N4CC5CCC4CC5)cc3c2[C@H](C)CNCc2ccc3nc[nH]c3c2)c1
tested_target: Gonadotropin-releasing hormone receptor (Homo sapiens, UniProt P30968)
scale_unit: pM
observed_result: 16500

compound: Cc1cc(C)cc(-c2[nH]c3ccc(C(C)(C)C(=O)N4CC5CCC4CC5)cc3c2[C@H](C)CNCCc2ccc3[nH]c(CO)nc3c2)c1
tested_target: Gonadotropin-releasing hormone receptor (Homo sapiens, UniProt P30968)
scale_unit: pM
observed_result: 700

compound: Cc1cc(C)cc(-c2[nH]c3ccc(C(C)(C)C(=O)N4C5CCC4CC5)cc3c2[C@H](C)CNCCCCc2ccnc3nc(C)ccc23)c1
tested_target: Gonadotropin-releasing hormone receptor (Homo sapiens, UniProt P30968)
scale_unit: pM
observed_result: 600

compound: Cc1cc(C)cc(-c2[nH]c3ccc(C(C)(C)C(=O)N4C5CCC4CC5)cc3c2[C@H](C)CNCCCc2ccnc3nc(C)ccc23)c1
tested_target: Gonadotropin-releasing hormone receptor (Homo sapiens, UniProt P30968)
scale_unit: pM
observed_result: 1100

compound: Cc1cc(C)cc(-c2[nH]c3ccc(C(C)(C)C(=O)N4C5CCC4CC5)cc3c2[C@H](C)CNCCCCc2ccc3ncccc3c2)c1
tested_target: Gonadotropin-releasing hormone receptor (Homo sapiens, UniProt P30968)
scale_unit: pM
observed_result: 1100

compound: Cc1cc(C)cc(-c2[nH]c3ccc(C(C)(C)C(=O)N4CC5CCC4CC5)cc3c2[C@H](C)CNCCc2cnc3nn[nH]c3c2)c1
tested_target: Gonadotropin-releasing hormone receptor (Homo sapiens, UniProt P30968)
scale_unit: pM
observed_result: 600

compound: Cc1cc(C)cc(-c2[nH]c3ccc(C(C)(C)C(=O)N4C5CCC4CC5)cc3c2[C@H](C)CNCCCCc2cnc3nc[nH]c3c2)c1
tested_target: Gonadotropin-releasing hormone receptor (Homo sapiens, UniProt P30968)
scale_unit: pM
observed_result: 400

compound: Cc1cc(C)cc(-c2[nH]c3ccc(C(C)(C)C(=O)N4CC5CCC4CC5)cc3c2[C@H](C)CNCCc2ccc3[nH]ncc3c2)c1
tested_target: Gonadotropin-releasing hormone receptor (Homo sapiens, UniProt P30968)
scale_unit: pM
observed_result: 1100

compound: Cc1cc(C)cc(-c2[nH]c3ccc(C(C)(C)C(=O)N4CC5CCC4CC5)cc3c2[C@H](C)CNCCc2ccc3nsnc3c2)c1
tested_target: Gonadotropin-releasing hormone receptor (Homo sapiens, UniProt P30968)
scale_unit: pM
observed_result: 500

compound: Cc1cc(C)cc(-c2[nH]c3ccc(C(C)(C)C(=O)N4C5CCC4CC5)cc3c2[C@H](C)CNCCc2ccc3[nH]c(C)nc3c2)c1
tested_target: Gonadotropin-releasing hormone receptor (Homo sapiens, UniProt P30968)
scale_unit: pM
observed_result: 400

compound: Cc1cc(C)cc(-c2[nH]c3ccc(C(C)(C)C(=O)N4C5CCC4CC5)cc3c2[C@H](C)CNCCCc2cncc3ccccc23)c1
tested_target: Gonadotropin-releasing hormone receptor (Homo sapiens, UniProt P30968)
scale_unit: pM
observed_result: 2100

compound: Cc1cc(C)cc(-c2[nH]c3ccc(C(C)(C)C(=O)N4C5CCC4CC5)cc3c2[C@H](C)CNCCc2ccc3[nH]nnc3c2)c1
tested_target: Gonadotropin-releasing hormone receptor (Homo sapiens, UniProt P30968)
scale_unit: pM
observed_result: 600

compound: Cc1cc(C)cc(-c2[nH]c3ccc(C(C)(C)C(=O)N4C5CCC4CC5)cc3c2[C@H](C)CNCCc2ccc3ncoc3c2)c1
tested_target: Gonadotropin-releasing hormone receptor (Homo sapiens, UniProt P30968)
scale_unit: pM
observed_result: 400

compound: Cc1cc(C)cc(-c2[nH]c3ccc(C(C)(C)C(=O)N4C5CCC4CC5)cc3c2[C@H](C)CNCCCc2cccc3ncccc23)c1
tested_target: Gonadotropin-releasing hormone receptor (Homo sapiens, UniProt P30968)
scale_unit: pM
observed_result: 2400

compound: Cc1cc(C)cc(-c2[nH]c3ccc(C(C)(C)C(=O)N4C5CCC4CC5)cc3c2[C@H](C)CNCCCc2cccc3cnccc23)c1
tested_target: Gonadotropin-releasing hormone receptor (Homo sapiens, UniProt P30968)
scale_unit: pM
observed_result: 900

compound: Cc1cc(C)cc(-c2[nH]c3ccc(C(C)(C)C(=O)N4C5CCC4CC5)cc3c2[C@H](C)CNCCc2ccc3nc[nH]c3c2)c1
tested_target: Gonadotropin-releasing hormone receptor (Homo sapiens, UniProt P30968)
scale_unit: pM
observed_result: 400

compound: Cc1cc(C)cc(-c2[nH]c3ccc(C(C)(C)C(=O)N4CC5CCC4CC5)cc3c2[C@H](C)CNCCc2ccc3[nH]c(C(F)(F)F)nc3c2)c1
tested_target: Gonadotropin-releasing hormone receptor (Homo sapiens, UniProt P30968)
scale_unit: pM
observed_result: 900

compound: Cc1cc(C)cc(-c2[nH]c3ccc(C(C)(C)C(=O)N4C5CCC4CC5)cc3c2[C@H](C)CNCCCCc2cccc3ncccc23)c1
tested_target: Gonadotropin-releasing hormone receptor (Homo sapiens, UniProt P30968)
scale_unit: pM
observed_result: 1900

compound: Cc1cc(C)cc(-c2[nH]c3ccc(C(C)(C)C(=O)N4CC5CCC4CC5)cc3c2[C@H](C)CNCCc2ccc3nc(C(=O)O)[nH]c3c2)c1
tested_target: Gonadotropin-releasing hormone receptor (Homo sapiens, UniProt P30968)
scale_unit: pM
observed_result: 400

compound: COC(=O)c1nc2ccc(CCNC[C@@H](C)c3c(-c4cc(C)cc(C)c4)[nH]c4ccc(C(C)(C)C(=O)N5CC6CCC5CC6)cc34)cc2[nH]1
tested_target: Gonadotropin-releasing hormone receptor (Homo sapiens, UniProt P30968)
scale_unit: pM
observed_result: 300

compound: Cc1cc(C)cc(-c2[nH]c3ccc(C(C)(C)C(=O)N4C5CCC4CC5)cc3c2[C@H](C)CNCCCc2ccc3cnccc3c2)c1
tested_target: Gonadotropin-releasing hormone receptor (Homo sapiens, UniProt P30968)
scale_unit: pM
observed_result: 700

compound: Cc1cc(C)cc(-c2[nH]c3ccc(C(C)(C)C(=O)N4C5CCC4CC5)cc3c2[C@H](C)CNCCCCc2ccc3cnccc3c2)c1
tested_target: Gonadotropin-releasing hormone receptor (Homo sapiens, UniProt P30968)
scale_unit: pM
observed_result: 3600

compound: Cc1cc(C)cc(-c2[nH]c3ccc(C(C)(C)C(=O)N4C5CCC4CC5)cc3c2[C@H](C)CNCCc2ccc3ocnc3c2)c1
tested_target: Gonadotropin-releasing hormone receptor (Homo sapiens, UniProt P30968)
scale_unit: pM
observed_result: 300

compound: Cc1cc(C)cc(-c2[nH]c3ccc(C(C)(C)C(=O)N4CC5CCC4CC5)cc3c2[C@H](C)CNCCc2ccc3[nH]c(=O)[nH]c3c2F)c1
tested_target: Gonadotropin-releasing hormone receptor (Homo sapiens, UniProt P30968)
scale_unit: pM
observed_result: 700

compound: Cc1cc(C)cc(-c2[nH]c3ccc(C(C)(C)C(=O)N4C5CCC4CC5)cc3c2[C@H](C)CNCCCc2cnc3nccnc3c2)c1
tested_target: Gonadotropin-releasing hormone receptor (Homo sapiens, UniProt P30968)
scale_unit: pM
observed_result: 800

compound: Cc1cc(C)cc(-c2[nH]c3ccc(C(C)(C)C(=O)N4C5CCC4CC5)cc3c2[C@H](C)CNCc2cccc3ncccc23)c1 (stereo in doubt; 27a)
tested_target: Gonadotropin-releasing hormone receptor (Homo sapiens, UniProt P30968)
scale_unit: pM
observed_result: 27500

compound: Cc1cc(C)cc(-c2[nH]c3ccc(C(C)(C)C(=O)N4C5CCC4CC5)cc3c2[C@H](C)CNCCCCc2cccc3cnccc23)c1
tested_target: Gonadotropin-releasing hormone receptor (Homo sapiens, UniProt P30968)
scale_unit: pM
observed_result: 1500
